test system: HEK293; assay: Inhibition of TNF-alpha activated nuclear factor-kappa B in HEK293 cells at 20 ug/ml after 6 hrs by luciferase reporter gene assay relative to control; format: cell-based; conditions: Homo sapiens
recordedMetric: inhibition (%)
Give the quantity in %, number only.

Value of measured inhibition for the entry C[C@H](NC(=O)OCc1ccccc1)C(=O)N[C@@H](Cc1ccccc1)C(=O)O : 18.7

Value of measured inhibition for the entry O=C(N[C@@H](Cc1ccccc1)C(=O)N[C@H](CO)C(=O)O)OCc1ccccc1 : 24.5

Value of measured inhibition for the entry CC(C)(C)OC(=O)NCC(=O)OC[C@@H](NC(=O)[C@H](Cc1ccccc1)NC(=O)OCc1ccccc1)C(=O)O : 10.1

Value of measured inhibition for the entry C[C@H](NC(=O)OCc1ccccc1)C(=O)N[C@@H](CO)C(=O)O : 13.9

Value of measured inhibition for the entry C[C@H](NC(=O)OC(C)(C)C)C(=O)n1nnc2ccccc21 : 35.7

Attribution: ChEMBL document CHEMBL3596126
